FYI, the data here is from PubChem BioAssay.

# composite z-score per record follows
target: Left-right determination factor 2 (Homo sapiens); test: small molecules binding LEFTY2 protein – biochemical, small-molecule microarray, 635 nm fluorescence scan, primary screen (AID 1110); settings: higher = more signal

Consider the following illustrative entries.
The compound CC(C)(C)N1CC=CC23O[C@@H]4/C=C\CCCOC(=O)C4[C@H]2C(=O)N(CCCO)[C@@H]3C1=O (some centres undefined) , tested on Left-right determination factor 2 (Homo sapiens), showed composite z-score of 0.178

The compound "COC(=O)[C@@]1(Cc2ccc(F)cc2)[C@H]2c3cc(C(=O)N4CCCC4)n(Cc4cc(F)cc5c4OCOC5)c3C[C@H]2CN1C(=O)c1ccccc1" , tested on Left-right determination factor 2 (Homo sapiens), showed composite z-score of -0.285

The compound "C[N+](C)(C)CCCCNC(=O)[C@H]1C[C@H]2C(=O)N[C@@H](Cc3ccccc3)C(=O)N2[C@H]1c1cccc(OCCO)c1" , tested on Left-right determination factor 2 (Homo sapiens), showed composite z-score of 1.34

Next:
The compound O=C(NCC(O)CO)C1N=C(c2ccc(OCCCO)cc2)N(c2ccccc2)O1 (centres undefined) , tested on Left-right determination factor 2 (Homo sapiens), showed composite z-score of 0.48
